Assay: qHTS assay to identify small molecule antagonists of the estrogen related receptor signaling pathway with the pleiotropic PPARgamma coactivator (PGC) from Tox21 10K library - cell viability counter screen (AID 1224840); further: nearly all actives have a fitted effect of over 40% in size
Conditions: PGC/ERR reporter cells viability, CellTiter-Fluor, 17.5 h; series mostly up to 92.4 µM
Inconclusive results are not listed. Active and inactive are the calls of the source. The call rests on the fitted dose curve; in most records, active means well fitted cell-killing curve with a large enough effect in the repeat runs (not every such curve was filed as active); inconclusive means weak or mixed curves, or effect the other way; inactive means no such curve, though single readings can be large or run the other way.
Returns: one label drawn from YES (active), NO (inactive)

Would you please look over these solved cases?
CC(C)Oc1ccc2c(=O)c(-c3ccccc3)coc2c1 :: NO
CCCCC(CC)COC(=O)c1ccc(N(C)C)cc1 (stereo not drawn) :: NO
COc1cc([C@@H]2c3cc4c(cc3[C@H](O)[C@H]3COC(=O)[C@H]23)OCO4)cc(OC)c1OC :: NO
CCCCc1oc2ccccc2c1C(=O)c1cc(I)c(OCCN(CC)CC)c(I)c1 :: YES
O=C(O)c1ccccc1Nc1cccc(C(F)(F)F)c1 :: NO

Qu. Called result for Cc1ccc(C)c(O)c1C
Ans. NO

Qu. Hey, what did the test say about O=C=Nc1ccc(Cc2ccc(N=C=O)cc2)cc1 ?
Ans. NO

Qu. Called result for CC(C)CC(C)(O)C#CC(C)(O)CC(C)C (stereo not drawn)
Ans. NO

Qu. So what was the verdict on C[C@]12CCC(=O)C=C1CC[C@@H]1[C@@H]2C(=O)C[C@@]2(C)[C@H]1CC[C@]2(O)C(=O)CO in this test?
Ans. NO

Qu. Entry O=[N+]([O-])c1ccc2c(c1)Cc1ccccc1-2 : call = ?
Ans. NO

Qu. Check the results log: what was the call for C/C=C/C(=O)O ?
Ans. NO

Qu. Record lookup: outcome of this test for Cc1cccc(C(=O)O)c1 ?
Ans. NO

Qu. Call for entry OCCO :
Ans. NO

---

Assay: qHTS assay for identifying genotoxic compounds that show differential cytotoxicity against isogenic chicken DT40 cell lines with known DNA damage response pathways - Rev3 mutant cell line (AID 743014); further: nearly all actives have a fitted effect of over 55% in size
Conditions: chicken DT40 Rev3-/- viability, CellTiter-Glo, 40 h; series mostly up to 68.4 µM
Inconclusive results are not listed. Activity calls are given as the source filed them. Calls follow the shape of the dose curve; as a rule, active = well fitted cell-killing curve with a large enough effect in the repeat runs; inconclusive = weak or mixed curves, or effect the other way; inactive = no such curve, though single readings can be large or run the other way.
test-readout: outcome

Cc1cccc(C(=O)O)c1 :: inactive
Cc1ccc(C)c(O)c1C :: inactive
CCCCC(CC)COCC1CO1 (stereo unspecified) :: inactive
O=P(O)(O)O :: inactive
CCCCNS(=O)(=O)c1ccccc1 :: inactive

Here is another molecule to look at.
Noted for O=Cc1ccccc1O : its outcome reads inactive

---

Assay: qHTS RealTime-Glo MT Cell Viability Assay in HepG2 cells - 16 hour (AID 1224885); further: nearly all actives have a fitted effect of over 50% in size
Conditions: RealTime-Glo luminescence; series mostly up to 76.8 µM
Source text: U.S. Tox21 Program National Center for Advancing Translational Sciences [NCATS] NIH Chemical Genomics Center [NCGC] U.S. Environmental Protection Agency [EPA] National Institutes of Environmental Health Sciences [NIEHS] National Toxicology Program [NTP] U.S. Food and Drug Administration [FDA] Tox21 Assay Overview: Measure of cell viability is critical in the cell-base assay. Analysis of cell viability is necessary for the characterization of cell responses to cytotoxic drugs and environmental stress. […]
Results filed as inconclusive are left out. Activity calls are given as the source filed them. Calls follow the shape of the dose curve; as a rule, active = well fitted cell-killing curve with a large enough effect in the repeat runs; inconclusive = weak or mixed curves; inactive = flat fitted curve, though single readings scatter.
test-readout: outcome

Use these answered entries as a reference point.
CCCCNS(=O)(=O)c1ccccc1 :: inactive
CC(C)OC(=O)C(C)(C)Oc1ccc(C(=O)c2ccc(Cl)cc2)cc1 :: inactive
CC1=CCC(C(C)(C)O)CC1 (configuration not stated) :: inactive
CCCCC/C=C/C=C/C=O :: inactive
O=C(OCc1ccccc1)c1ccccc1O :: inactive
Cn1cnc([N+](=O)[O-])c1Sc1ncnc2nc[nH]c12 :: inactive

// sample CCCCCCCCCCCO , its outcome was inactive
